B1: β-arrestin P-long peptide [not stated] / human β2-appendage (700–937) used for ITC [human] (parent complex)
chain 1: DDDIVFEDFARQRLKGMKDD
chain 2: IGMAPGGYVAPKAVWLPAVKAKGLEISGTFTHRQGHIYMEMNFTNKALQHMTDFAIQFNKNSFGVIPSTPLAIHTPLMPNQSIDVSLPLNTLGPVMKMEPLNNLQVAVKNNIDVFYFSCLIPLNVLFVEDGKMERQVFLATWKDIPNENELQFQIKECHLNADTVSSKLQNNNVYTIAKRNVEGQDMLYQSLKLTNGIWILAELRIQPGNPNYTLSLKCRAPEVSQYIYQVYDSILKN

Variants of: B1
experiment.summary: ITC; stoichiometry (1.2)
recorded.endpoint: pKd
Interpret pKd as the negative base-10 log of the concentration measured in mol/L.

Request: Consider the variant shown here: chain 2 R180A What is its recorded pKd?
Result: 6.77

meta.source: paper PMC1540706
